// Activity lookup, one value per entry
Tested on: Mus musculus
Experiment: Antidiabetic activity against high fat diet-STZ-induced diabetic Swiss albino mouse model assessed as reduction in blood glucose level at 0.2 mmol/Kg/day, po administered for 14 days relative to glimepiride
Type: functional
Parameters: scale not given: the % may be the effect or the level left
Conditions: time 14 day
MEASUREMENT_NAME: Activity (%)

molecule="COC(=O)C1=C(C)NC(C)=C(C(=O)OC(C)(C)C)C1c1cccc2c1OCO2 (centres undefined)" measurement_name=Activity u=% reported_relation=< value_reported=1
molecule="CCOC(=O)C1=C(C)NC(C)=C(C(=O)OC(C)C)C1c1ccc2c(c1)OCO2 (centres undefined)" measurement_name=Activity u=% reported_relation=< value_reported=1
molecule="CCOC(=O)C1=C(C)NC(C)=C(C(=O)OC(C)(C)C)C1c1ccc2c(c1)OCO2 (centres undefined)" measurement_name=Activity u=% reported_relation=< value_reported=1
molecule="COC(=O)C1=C(C)NC(C)=C(C(=O)OCc2ccccc2)C1c1ccc2c(c1)OCO2 (centres undefined)" measurement_name=Activity u=% reported_relation== value_reported=128
molecule=COC(=O)C1=C(C)NC(C)=C(C(=O)OC)C1c1ccc2c(c1)OCCO2 measurement_name=Activity u=% reported_relation== value_reported=145
molecule=CC1=C(C(=O)OCc2ccccc2)C(c2ccc3c(c2)OCO3)C(C(=O)OCc2ccccc2)=C(C)N1 measurement_name=Activity u=% reported_relation== value_reported=113
molecule=CC1=C(C(=O)OC(C)(C)C)C(c2cccc3c2OCO3)C(C(=O)OC(C)(C)C)=C(C)N1 measurement_name=Activity u=% reported_relation=< value_reported=1
molecule=COCCOC(=O)C1=C(C)NC(C)=C(C(=O)OCCOC)C1c1ccc2c(c1)OCO2 measurement_name=Activity u=% reported_relation== value_reported=90
molecule="COC(=O)C1=C(C)NC(C)=C(C(=O)OCc2ccccc2)C1c1cccc2c1OCO2 (centres undefined)" measurement_name=Activity u=% reported_relation== value_reported=130
